- Test system: CN1E1
- Construct: catalytic triad Ser155, Asp250, His280
- Assay remarks: ester hydrolysis kinetics
- Assay type: biochemical, uncultured bacterium
- Stated conditions: 5 mM EPPS pH 8.0, 40°C
Measurement type: Km

Entry COC(=O)c1cc2ccccc2c2ccccc12 [Methyl phenanthrene-9-carboxylate] ; Km = 530 µM

Entry CCOC(=O)c1ccc(O)c(O)c1 [Protocatechuic acid ethyl ester] ; Km = 1140 µM

Entry COC(=O)c1ccccc1C(=O)OC [Dimethyl phthalate] ; Km = 1590 µM

Entry CC(=O)OCC(COC(C)=O)OC(C)=O [Triacetin] ; Km = 1640 µM

Entry COC(=O)CBr [Methyl bromoacetate] ; Km = 1700 µM

Entry COC(=O)c1ccc2ccc3ccccc3c2c1 [Methyl phenanthrene-3-carboxylate] ; Km = 1600 µM
